U251 CNS measurements of GI50, listed per entry.
QUANTITY_NAME: GI50

[[record]]
smiles_record = "Nc1nnc(-c2c[nH]c3ncc(Br)cc23)c(-c2c[nH]c3ccc(Br)cc23)n1"
measured_target = "U251 CNS"
quantity_name = "GI50"
value = "10.1 µM"

[[record]]
smiles_record = "O=C(CNc1nc(-c2ccccc2)cs1)Nc1ccc([N+](=O)[O-])cc1Cl"
measured_target = "U251 CNS"
quantity_name = "GI50"
value = "4.42 µM"

[[record]]
smiles_record = "CN1CCc2c(sc3ncnc(N/N=C/c4ccc(Cl)cc4Cl)c23)C1"
measured_target = "U251 CNS"
quantity_name = "GI50"
value = "1.92 µM"

[[record]]
smiles_record = "O=C(/C=C/c1cccc(OCc2ccc(F)cc2)c1)c1nc2ccccc2[nH]1"
measured_target = "U251 CNS"
quantity_name = "GI50"
value = "13.5 µM"

